Form field: TGI (one value per entry).
Tested on: A549 NSCLC
Experiment: NCI tumour cell line growth inhibition, 48 h
Measured property: TGI

[
  {
    "Compound": "CCOc1ccc(N=Nc2c(-c3ccccc3)nn(C(=O)CC(=O)Nc3ccccc3Cl)c2-c2ccccc2)cc1",
    "Measurement": "> 100 µM"
  },
  {
    "Compound": "CCOC(=O)/C=C(/OCC)[C@@H]1C(C(=O)c2ccc(Cl)cc2)[C@@H]1/C(=C\\C(=O)OCC)OCC (stereo not given in full)",
    "Measurement": "> 100 µM"
  },
  {
    "Compound": "CN(C)CCC(/C=C/c1ccccc1)=N\\Nc1c(F)c(F)c(F)c(F)c1F",
    "Measurement": "> 100 µM"
  },
  {
    "Compound": "Cc1cc(N(CCC#N)CCC#N)ccc1/C=C1N=C(/C=C\\c2ccccc2)N(c2ccc(C(=O)O)cc2)C\\1=O",
    "Measurement": "> 100 µM"
  },
  {
    "Compound": "Cc1ccccc1NC(=O)C(=O)CC(=O)c1sc(-n2nc(-c3ccccc3)cc2-c2ccccc2)nc1C",
    "Measurement": "> 100 µM"
  }
]
